Source listed as the supplement of paper PMC10065799.

# tested.on: FGFR3 (UniProt P22607)
# Sequence (P22607 whole entry, looked up): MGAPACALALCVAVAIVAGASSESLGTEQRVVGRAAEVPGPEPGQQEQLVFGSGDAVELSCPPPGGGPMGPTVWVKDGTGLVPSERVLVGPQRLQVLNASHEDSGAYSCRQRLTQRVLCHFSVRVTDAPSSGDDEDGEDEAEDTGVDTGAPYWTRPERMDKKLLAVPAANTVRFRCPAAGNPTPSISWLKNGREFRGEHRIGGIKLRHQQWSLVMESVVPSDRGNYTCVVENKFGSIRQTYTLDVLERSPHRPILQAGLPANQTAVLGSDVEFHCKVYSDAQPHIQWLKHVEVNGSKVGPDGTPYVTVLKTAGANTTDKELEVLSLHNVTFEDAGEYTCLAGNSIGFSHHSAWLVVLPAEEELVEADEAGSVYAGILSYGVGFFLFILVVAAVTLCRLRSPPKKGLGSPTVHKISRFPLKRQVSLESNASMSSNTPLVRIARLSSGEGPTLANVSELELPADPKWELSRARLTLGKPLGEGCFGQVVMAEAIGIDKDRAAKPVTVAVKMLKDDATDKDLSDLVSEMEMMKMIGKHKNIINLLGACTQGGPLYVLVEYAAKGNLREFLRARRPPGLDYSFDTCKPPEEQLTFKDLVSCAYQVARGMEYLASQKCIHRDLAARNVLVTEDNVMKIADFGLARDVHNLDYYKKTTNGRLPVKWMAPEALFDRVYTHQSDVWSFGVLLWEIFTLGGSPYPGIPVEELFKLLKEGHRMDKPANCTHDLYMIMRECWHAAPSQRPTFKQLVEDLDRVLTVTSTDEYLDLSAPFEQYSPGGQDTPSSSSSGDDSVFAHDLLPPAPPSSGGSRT
# assay.remarks: phosphorylation enrichment, bacterial display (enrichment ratio); higher = better substrate or ligand; peptides without Tyr show the background
# phosphorylation enrichment per record follows
API doc: respond with a numeric literal and nothing else, no unit.

A selection of reference data follows.
In [3]: df
Out[3]:
           ordered_residues                   parameter  measurement
0  QTEGEYSSLEH [IDH3B_Y171]  phosphorylation enrichment        0.874
1  NWGKKYPTCNS [PTPRZ1_Y53]  phosphorylation enrichment        0.603
2   RGFDTYFGYLL [ARSB_Y165]  phosphorylation enrichment          3.3

Let us examine a further case.
Sure, the documented phosphorylation enrichment for KNNSIYVLANI [VNN1_Y134_V136L] is 1.08

====

# tested.on: Fes (UniProt P07332)
# Sequence (P07332 whole entry, looked up): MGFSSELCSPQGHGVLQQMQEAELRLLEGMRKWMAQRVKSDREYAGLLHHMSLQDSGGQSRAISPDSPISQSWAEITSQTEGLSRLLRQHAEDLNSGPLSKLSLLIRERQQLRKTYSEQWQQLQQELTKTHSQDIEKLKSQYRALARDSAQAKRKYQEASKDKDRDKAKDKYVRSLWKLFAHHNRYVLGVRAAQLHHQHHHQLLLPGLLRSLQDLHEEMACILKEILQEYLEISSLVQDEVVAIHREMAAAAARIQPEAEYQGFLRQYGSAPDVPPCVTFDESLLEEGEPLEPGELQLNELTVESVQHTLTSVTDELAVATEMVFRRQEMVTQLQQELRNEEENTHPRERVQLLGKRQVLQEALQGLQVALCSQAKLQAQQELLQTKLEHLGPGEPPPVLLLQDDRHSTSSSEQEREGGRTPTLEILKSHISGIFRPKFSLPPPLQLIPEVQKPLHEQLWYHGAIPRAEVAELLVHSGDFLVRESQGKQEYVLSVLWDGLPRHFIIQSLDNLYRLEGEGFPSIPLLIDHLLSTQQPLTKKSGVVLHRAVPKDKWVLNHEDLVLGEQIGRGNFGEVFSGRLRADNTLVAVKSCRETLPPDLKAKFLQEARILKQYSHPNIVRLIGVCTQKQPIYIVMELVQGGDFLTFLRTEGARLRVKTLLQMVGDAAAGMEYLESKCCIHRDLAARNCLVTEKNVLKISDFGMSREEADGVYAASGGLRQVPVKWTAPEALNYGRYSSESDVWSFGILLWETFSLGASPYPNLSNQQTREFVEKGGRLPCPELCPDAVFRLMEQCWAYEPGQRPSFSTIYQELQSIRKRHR
# assay.remarks: phosphorylation enrichment, bacterial display (enrichment ratio); higher = better substrate or ligand; peptides without Tyr show the background
parameter: phosphorylation enrichment
Quick one: just the number, no unit, thanks!

                    ordered_residues             tested_on                   parameter  measurement
0        KDHPDYKFQPR [SOX10_Y171_YF]  Fes (UniProt P07332)  phosphorylation enrichment        0.745
1          CLLHCYFSQIR [MCM3AP_Y873]  Fes (UniProt P07332)  phosphorylation enrichment         1.32
2   GHEEFYSTHPH [LRRK2_Y1402_R1398H]  Fes (UniProt P07332)  phosphorylation enrichment        0.626
3                        PGVNFYFQVSA  Fes (UniProt P07332)  phosphorylation enrichment         1.93
4  SPFMLYQFLKQ [RPAP3_Y567_D564Y_YF]  Fes (UniProt P07332)  phosphorylation enrichment         1.34
5            IRGNMYYENSY [EGFR_Y112]  Fes (UniProt P07332)  phosphorylation enrichment        0.733
6    ELAKFYKLHHI [AK7_Y391_N389K_YF]  Fes (UniProt P07332)  phosphorylation enrichment        0.762
7    YRQLPYCPSVE [CTNND2_Y508_Q507P]  Fes (UniProt P07332)  phosphorylation enrichment         1.53

Entry RASQEYHIVKK [PDZD2_Y557_S552R] — recorded phosphorylation enrichment = 1.08

RLDRSYSYSYS [PEAR1_Y890] has a reported phosphorylation enrichment of 0.597

Consider PSELYYSKIGP [SMG1_Y2254] . Its measured phosphorylation enrichment is 1.68

# phosphorylation enrichment (sequence: GEEIKYTLWLS [OTC_Y55_M56T] ) is 1.4

Measured phosphorylation enrichment of NNRVFYGNSDC [RS1_Y177_R182C] : 0.863

SVEVPYEPPEV [TP53_Y220_V217E] yielded phosphorylation enrichment of 1.4

====

# phosphorylation enrichment listing for each entry below
# tested.on: Jak2 (UniProt O60674)
# Sequence (O60674 whole entry, looked up): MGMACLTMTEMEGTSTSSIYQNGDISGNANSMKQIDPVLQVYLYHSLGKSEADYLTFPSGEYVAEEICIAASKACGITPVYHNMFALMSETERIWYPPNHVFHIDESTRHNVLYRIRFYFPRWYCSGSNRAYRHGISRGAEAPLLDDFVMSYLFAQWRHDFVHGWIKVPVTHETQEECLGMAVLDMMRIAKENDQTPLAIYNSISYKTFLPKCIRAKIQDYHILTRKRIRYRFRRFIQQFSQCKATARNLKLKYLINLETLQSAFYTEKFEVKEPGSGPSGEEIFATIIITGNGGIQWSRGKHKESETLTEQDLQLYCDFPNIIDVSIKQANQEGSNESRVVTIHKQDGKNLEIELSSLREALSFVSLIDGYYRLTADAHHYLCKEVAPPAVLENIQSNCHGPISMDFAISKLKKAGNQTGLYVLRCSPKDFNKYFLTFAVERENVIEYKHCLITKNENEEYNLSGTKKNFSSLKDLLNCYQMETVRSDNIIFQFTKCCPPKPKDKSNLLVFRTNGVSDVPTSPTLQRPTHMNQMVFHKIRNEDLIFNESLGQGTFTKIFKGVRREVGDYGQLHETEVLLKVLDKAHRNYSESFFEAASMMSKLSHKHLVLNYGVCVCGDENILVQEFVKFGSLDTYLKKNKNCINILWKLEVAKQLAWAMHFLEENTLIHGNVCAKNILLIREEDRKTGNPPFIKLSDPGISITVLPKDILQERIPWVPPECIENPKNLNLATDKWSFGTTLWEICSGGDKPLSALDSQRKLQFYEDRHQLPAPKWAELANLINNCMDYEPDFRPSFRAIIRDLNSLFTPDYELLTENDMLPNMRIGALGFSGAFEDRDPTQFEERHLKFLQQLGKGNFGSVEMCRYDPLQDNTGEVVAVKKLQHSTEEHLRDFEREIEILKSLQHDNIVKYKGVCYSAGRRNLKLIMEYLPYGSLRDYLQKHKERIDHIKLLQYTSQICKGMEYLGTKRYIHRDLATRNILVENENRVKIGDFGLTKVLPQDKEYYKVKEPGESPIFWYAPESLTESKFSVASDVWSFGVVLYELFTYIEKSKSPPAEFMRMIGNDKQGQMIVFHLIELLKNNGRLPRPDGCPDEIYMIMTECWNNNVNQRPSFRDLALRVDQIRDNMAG
# assay.remarks: phosphorylation enrichment, bacterial display (enrichment ratio); higher = better substrate or ligand; peptides without Tyr show the background
Just the number, please, no unit attached.

Reference set, count: 4
>>> df
                   ordered_residues  measurement
0           KQVEQYMSFHK [HCN1_Y417]        0.687
1    PLDNLYAEPAV [PRPS1_Y146_V142L]         1.83
2     SVVVPYETPEV [TP53_Y220_P222T]         1.14
3  KGPNVCKKTVN [REV3L_Y1156_Y1156C]        0.944

Entry SVVVPYEPTEV [TP53_Y220_P223T] ; phosphorylation enrichment = 1.27

The reported phosphorylation enrichment of the sequence LIGRRYDDPEV [HSPA9_Y128] was 1.35

phosphorylation enrichment reading for SLQAHYDTPRS [DOK7_Y405_R402Q] : 0.53

====

Let's look at some sequences and their measured phosphorylation enrichment.
# Tested on: c-Abl (mouse)
# assay.remarks: phosphorylation enrichment, bacterial display (enrichment ratio); higher = better substrate or ligand; peptides without Tyr show the background
# respond with the number and nothing more

The examples below pair each entry with its known result.
>>> df
                  ordered_residues  measurement
0          KQVEQYMSFHK [HCN1_Y417]        0.691
1        KRISCYEASYQ [PFKFB3_Y194]         0.74
2    LKGQVYILVRE [ASS1_Y359_G362V]        0.921
3    NAGDYYDLYGG [PTPN11_Y63_T59A]         1.13
4  TSFSGYRCHRH [NKAPL_Y94_Y96C_YF]        0.562

Recorded phosphorylation enrichment for HLWRIYYDITD [MMP27_Y307] on c-Abl (mouse) was 1.86

Entry REAAAYPHGRL [AGXT_Y297_L298P] , tested on c-Abl (mouse), has a reported phosphorylation enrichment of 0.415

====

# Tested on: c-Src
# assay.remarks: phosphorylation enrichment, bacterial display (enrichment ratio); higher = better substrate or ligand; peptides without Tyr show the background
parameter: phosphorylation enrichment
API note: the answer field is a bare number with no unit suffix.

// below: answered sequences
>>> print(df.to_string())
                      ordered_residues  measurement
0  VTPVMYTFDEF [COL10A1_Y623_G618V_YF]        0.715
1    IVAEFYDNLPH [DEGS1_Y284_A280V_YF]        0.733
2        SAVVPYEPPEV [TP53_Y220_V216A]        0.484
3        ASPKSYPSQKH [CAP2_Y316_T311A]        0.366
4       AKGMKYVASKK [MET_Y1194_L1195V]        0.381
5           GTPVMYTYDEY [COL10A1_Y623]         2.42

Value of measured phosphorylation enrichment for the entry VNKGGYFSVNL [C3orf33_Y164_S160N] : 0.398

phosphorylation enrichment reported for this sequence IVEYAYNDKAV [PUM3_Y259_I264V] : 0.492

Recorded phosphorylation enrichment (sequence SILAVYSKDNY [PANK2_Y400] ): 1.11

Per the records, this sequence ( AQMAMYFWEMG [TRPM4_Y577] ) has phosphorylation enrichment equal to 2.62

Per the record, MDDKEYFSVHN [MET_Y1234_Y1230D_YF] has phosphorylation enrichment of 0.435

Looking up GQETSYIEDNC [PAH_Y24] , I see its phosphorylation enrichment listed as 0.515

Lab note: measured phosphorylation enrichment of PESIPYRKFTT [NTRK1_Y701_L700P] was 0.485

====

# tested.on: SHP2-C SH2
# assay.remarks: SH2 binding enrichment of the phosphorylated peptide, bacterial display (enrichment ratio); higher = better substrate or ligand; peptides without Tyr show the background
Each record here notes measured SH2 binding enrichment.

Here's what some known entries look like.
In [3]: df
Out[3]:
                  ordered_residues   tested_on  measurement
0   ILGTFYETGSI [PAX2_Y73_R71T_YF]  SHP2-C SH2        0.837
1     ATAKGYEPDAS [OTC_Y223_P220A]  SHP2-C SH2        0.598
2    SGGCSYGSGGG [KRT1_Y539_G537C]  SHP2-C SH2        0.655
3  PQGVRYTFTID [DCX_Y103_I104T_YF]  SHP2-C SH2        0.729
4   VDEVLYEDSSA [MTHFS_Y197_T202A]  SHP2-C SH2        0.979

Reported SH2 binding enrichment of ENGPYYASYPP [GDAP2_Y488_T489A] : 0.773

Sample IRGNMYYENSY [EGFR_Y112] ; SH2 binding enrichment observed: 0.897

// SH2 binding enrichment value for SFPHEYGSQEG [RBM10_Y48_R46H_YF] : 0.623

GET /value?item= PLDNLYAEPAV [PRPS1_Y146_V142L] &field=SH2 binding enrichment returns 0.655

For record AVNNFYAAKKT [CCDC178_Y422_D420N] the listed SH2 binding enrichment is 0.745

Please fill in: SH2 binding enrichment reported for KILGRYYETGS [PAX2_Y72] = 0.6

Memo: IKGIRYLHHRG [GUCY2D_Y656] , reported SH2 binding enrichment: 0.966

The sequence identified as RDSQLYAVDFE [MRPS34_Y34_YF] registered its SH2 binding enrichment at 1.07

Measured SH2 binding enrichment, YRDALYKFMVD [PHEX_Y250] : 0.665

response.value for RSFLSYYTSHV [NEFL_Y442_P440L] (field: SH2 binding enrichment) = 1.63

# SH2 binding enrichment of VQEDIYDEFVE [ALDH2_Y332] = 0.408

The sequence listed as REAAAYPHGRL [AGXT_Y297_L298P] has a reported SH2 binding enrichment of 0.739

Sure, the documented SH2 binding enrichment for GTHCHYKAPTV [FZD9_Y569] is 0.913

// SYMVRYNQPRV [GRIN2D_Y736] : SH2 binding enrichment value = 1.25

For this sequence ( HPFNSYTFPRL [PAK5_Y316_S312P_YF] ), measured SH2 binding enrichment is 1.35
